biological target: Streptavidin (Streptomyces avidinii) (UniProt P22629); experiment: streptavidin binders on small-molecule microarray, primary screen, artefact control for SMM compound annotation, biophysical, 635/667 nm fluorescence (AID 1147); details: streptavidin binding, higher = more signal;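 note: signal reflects streptavidin binding to arrayed compounds as a control protein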
Sequence (P22629 whole entry, looked up): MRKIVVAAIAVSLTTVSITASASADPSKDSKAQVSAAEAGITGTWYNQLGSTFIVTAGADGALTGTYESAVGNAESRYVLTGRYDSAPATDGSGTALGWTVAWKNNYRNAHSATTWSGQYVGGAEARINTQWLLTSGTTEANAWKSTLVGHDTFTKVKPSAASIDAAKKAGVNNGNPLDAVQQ
measurementKind: composite z-score

C=C(CCCC)/C(=C/C[C@@H](OC(=O)c1ccncc1)c1cccc(OCCO)c1)c1cnc2ccccc2c1 | 1.49
CC(C)(C)OC(=O)CC[C@]1(C(=O)NCCN2CCOCC2)N=C(c2ccc(OCCCO)cc2)O[C@H]1c1ccccc1 | 0.541
C=C(/C(=C/C[C@@H](OC(=O)c1ccncc1)c1ccc(OCCO)cc1)c1cc(C(=O)OC)ccc1OC)C(C)C | 0.747
CO[C@H]1O[C@H](CO)[C@@H](OC(=O)Nc2ccccc2-c2ccccc2)[C@H](OC(=O)Nc2ccc3c(c2)OCO3)[C@@H]1OC(=O)Nc1ccc2c(c1)OCO2 | 0.282
NC(=O)N1C(=O)C2C(C1=O)C1C=C(CCCO)C2C(c2cccs2)N1Cc1cc2c(cc1Br)OCO2 (centres undefined) | 1.13
O=C1OCC=C[C@H]2OC34C=CCN(Cn5nnc6ccccc65)C(=O)[C@H]3N(CCCCCCO)C(=O)[C@@H]4[C@@H]12 (some centres undefined) | -0.701
O=C1c2ccccc2[C@](Cc2ccccc2I)(C(=O)NCCN2CCOCC2)[C@H](c2ccc(CO)cc2)N1Cc1ccccc1 | 1.17
CCN(CC)c1ccc(N2CC=CC34O[C@@H]5/C=C\CCC(C)OC(=O)C5[C@H]3C(=O)N(CCO)[C@@H]4C2=O)cc1 (some centres undefined) | -0.21
CC=CC(O)C1C=CC2C(=O)N(C)C(=O)C2N1N1CCCCC1 (centres undefined) | 0.988
CON(C)C(=O)C=C1C[C@@H](c2cccc(Cl)c2)O[C@@H](c2cccc(Cl)c2)O1 | 2.55
COC(=O)Cn1c(C(=O)N2CCCC2)cc2c1C[C@H]1CN(C(=O)c3ccccc3)[C@@](Cc3ccc(F)cc3)(C(=O)OC)[C@@H]21 | 1.59
COc1ccc([Si](C)(C)[C@H]2[C@H](CC(=O)N3Cc4ccccc4C[C@H]3CO)O[C@@]3(C(=O)N(Cc4cccc(N5CCCCC5=O)c4)c4ccccc43)[C@@H]2C)cc1 | -0.0717
CN1C(=O)C2C=CC(C(O)C3CCCCC3)N(N3CCCCC3)C2C1=O (centres undefined) | 0.842
C=CCOC(=O)[C@@H]1[C@H]2C(=O)O[C@H](c3ccccc3)[C@H](c3ccccc3)N2[C@H](c2ccc(OCCOC(=O)[C@H]3C[C@H]4C(=O)N[C@@H](CCCCNC(C)=O)C(=O)N4[C@H]3c3cccc(OCCO)c3)cc2)[C@@]12C(=O)Nc1ccc(I)cc12 | 0.356
CC=CC(O)C1C=CC2C(=O)N(c3ccccc3)C(=O)C2N1Nc1ccc([N+](=O)[O-])cc1 (centres undefined) | 0.395
CC(C)C(CO)N1C(=O)[C@]2(C)C3C(=O)OCCC/C=C\[C@H]3OC23C=CCN(c2ccc(Cl)cc2)C(=O)[C@@H]13 (some centres undefined) | -0.476
O=C1C[C@@](C(=O)NCC(F)(F)F)(c2ccc([N+](=O)[O-])cc2)[C@@H](c2ccc(CO)cc2)N1C1CCCCC1 | 0.579
CN(C)C(=O)[C@@]1(Cc2ccccc2N=[N+]=[N-])COC(c2ccc(OCCCO)cc2)=N1 | 0.726
C[C@]1(C(=O)NCCN2CCOCC2)c2ccccc2C(=O)N(Cc2ccc(OC(F)(F)F)cc2)[C@H]1c1ccc(CO)cc1 | -0.152
O=C(CS)NCCCCCCNC(=O)[C@@H]1C[C@@H]2C(=O)N3CCC[C@H]3C(=O)N2[C@@H]1c1cccc(OCCO)c1 | 0.283
CN(C)CCCN1C(=O)[C@@]2(c3ccc([N+](=O)[O-])cc3)CC(=O)N(CC34CC5CC(CC(C5)C3)C4)[C@@H]2c2ccc(CO)cc21 | -0.472
CN(C)CCCNC(=O)[C@@]1(c2ccc([N+](=O)[O-])cc2)CC(=O)N(CC23CC4CC(CC(C4)C2)C3)[C@@H]1c1ccc(CO)cc1 | 2.03
C=CCOC(=O)[C@H]1[C@@H]2C(=O)O[C@@H](c3ccccc3)[C@@H](c3ccccc3)N2[C@@H](c2ccc(OCCOC(=O)[C@H]3C[C@H]4C(=O)N[C@@H](CCCC[N+](C)(C)C)C(=O)N4[C@H]3c3cccc(OCCO)c3)cc2)[C@]12C(=O)Nc1ccc(I)cc12 | -0.0117
COc1cc(CO)cc(I)c1O[C@H]1C=C(C(=O)NCCO)C[C@@H](N(Cc2ccc(F)cc2)C(=O)C2CCCO2)[C@@H]1O (some centres undefined) | -0.274
CC1CC/C=C\[C@H]2OC34C=CCN(C(C)C)C(=O)[C@H]3N(CCCCCO)C(=O)[C@@H]4C2C(=O)O1 (some centres undefined) | -1.16
C=CCN1C(=O)[C@@]2(CCC(=O)OC(C)(C)C)N=C(c3ccc(OCCCO)cc3)O[C@H]2c2ccccc21 | 0.57
CN1C(=O)C2C=CC(C(O)Cc3ccccc3)N(N(c3ccccc3)c3ccccc3)C2C1=O (centres undefined) | 2.18
CCOC(=O)C1=CC[C@@H](c2ccccc2)N(S(=O)(=O)c2ccc(C)cc2)C1 | 0.342
Cc1c(NC(=O)/C(C#N)=C/C=C/c2ccc(N(C)C)cc2)c(=O)n(-c2ccccc2)n1C | 0.96

---

biological target: Neurogenic locus notch homolog protein 3 (Homo sapiens); test: NOTCH3 binders on small-molecule microarray, primary screen, biochemical, 635/667 nm fluorescence (AID 1096); settings: NOTCH3 binding, 635 nm fluorescence, higher = more signal
measurementKind: composite z-score

COCCOC(=O)N1C(=O)[C@@]2(c3cc(C#Cc4ccc(OC)cc4)ccc31)[C@H](C(=O)N1CCCCCCC1)[C@H]1C(=O)O[C@H](c3ccccc3)[C@H](c3ccccc3)N1[C@@H]2c1ccc(O)cc1 | 0.709
COC(=O)[C@H](Cc1ccccc1)N1CC(/C=C/C2CC2)=C[C@@H]1[C@@H](O)Cc1ccccc1 | 0.9
CC(C)(C)N1CC=CC23O[C@@H]4C=CCOC(=O)[C@@H]4[C@H]2C(=O)N(CCCO)[C@@H]3C1=O (stereo partly drawn) | -1.54
C=CCNC(=O)[C@H]1[C@@H]2C(=O)O[C@@H](c3ccccc3)[C@@H](c3ccccc3)N2[C@@H](c2ccccc2OCCO)[C@]12C(=O)N(C(=O)OCCOC)c1ccc(C#CC3=CCCCC3)cc12 | 1.05
COC(=O)C1(Cc2ccccc2)C=C2C(=C(c3ccccc3)C(=O)C2C)CN1 (stereo not drawn) | 0.885
CN1C(=O)C2C=CC(C(O)Cc3ccccc3)N(N(c3ccccc3)c3ccccc3)C2C1=O (stereo not drawn) | 0.839
COc1ccc(NC(=O)O[C@H]2[C@H](OC(=O)Nc3ccc4c(c3)OCO4)[C@@H](OC(=O)Nc3ccc4c(c3)OCO4)[C@@H](OC)O[C@@H]2CO)cc1 | 1.08
Cc1ccc(S[C@]2(C(=O)NC3CC3)CC(=O)N(Cc3ccccc3Cl)[C@@H]2c2ccc(CO)cc2I)cc1 | 0.304
COc1cc2c(cc1OC)CN(C(=O)[C@@H]1[C@H]3C(=O)O[C@H](c4ccccc4)[C@H](c4ccccc4)N3[C@H](c3ccccc3OCCO)[C@@]13C(=O)Nc1ccc(C#CC4(O)CCCCCC4)cc13)CC2 | 0.896
O=C1O[C@@H](c2ccccc2)[C@@H](c2ccccc2)N2[C@@H](c3ccccc3OCCO)[C@]3(C(=O)Nc4ccc(C#CCCO)cc43)[C@@H](C(=O)Nc3nc4ccccc4s3)[C@H]12 | 1.05
CCOC(=O)C[C@H]1[C@H](OC(=O)c2ccc(-c3ccccc3)cc2)[C@@H](NC(=O)C2CCCCC2)c2cc(OCCCO)ccc2N1C(=O)c1ccccc1 | 0.855
CCOC(=O)[C@H]1C/C=C/C[C@H](C(=O)OCC)C(=O)O[C@H]2[C@@H](OC)O[C@H](CO)[C@@H](OC(=O)Nc3ccc(OC)cc3)[C@@H]2OC1=O | 1.09
C=CCOC(=O)[C@H]1[C@@H]2C(=O)O[C@@H](c3ccccc3)[C@@H](c3ccccc3)N2[C@@H](c2ccc(OCCOC(=O)[C@H]3C[C@H]4C(=O)N[C@@H](Cc5ccccc5)C(=O)N4[C@H]3c3ccc(O)cc3)cc2)[C@]12C(=O)Nc1ccc(I)cc12 | 1.05

---

tested on: PRMT1 (protein arginine N-methyltransferase 1); assay: PRMT1 binders on small-molecule microarrays, primary screen, biochemical, small-molecule microarray, 635 nm fluorescence (AID 1088); details: small-molecule microarray binding, higher = more signal;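 note: binding of Prmt1 protein to compounds spotted on small-molecule microarray slides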
Each record here notes measured composite z-score.
measurementKind: composite z-score

CC(C)N1CC=CC23O[C@@H]4C=CCOC(=O)[C@@H]4[C@H]2C(=O)N(C(C)CO)[C@@H]3C1=O (some centres undefined) | -1
CC(C)(C)N1CC=CC23O[C@@H]4C=CCOC(=O)[C@@H]4[C@H]2C(=O)N(CCCO)[C@@H]3C1=O (some centres undefined) | -0.768
COCCOC(=O)N1C(=O)[C@@]2(c3cc(C#CC4(O)CCCCCC4)ccc31)[C@H](C(N)=O)[C@H]1C(=O)O[C@H](c3ccccc3)[C@H](c3ccccc3)N1[C@@H]2c1ccccc1OCCO | 1.54
CC(C)(C)OC(=O)CC[C@]1(C(=O)O)N=C(c2ccc(OCCCO)cc2)O[C@H]1c1ccccc1CN=[N+]=[N-] | -0.619
